Where these numbers come from: the Human Domainome abundance scans (Beltran et al. 2025)

B1: Poly(rC)-binding protein 1, residues 278 to 350; numbered along this chain, Q15365 (parent)
chain: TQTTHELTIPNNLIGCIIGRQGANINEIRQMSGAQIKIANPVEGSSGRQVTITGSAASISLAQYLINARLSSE

Variants of: B1
Assay: abundance fitness (aPCA) (normalised: wild type 0, dead -1); higher = more abundant; growth selection in yeast, the domain comes from the species named
Conditions: Homo sapiens
Can you tell me abundance fitness for the items I'm about to list?
Answers are plain numbers.

{"variantAnnotation": "T1I", "abundance fitness": 0.094}
{"variantAnnotation": "I9P", "abundance fitness": -0.835}
{"variantAnnotation": "G47I", "abundance fitness": -0.379}
{"variantAnnotation": "R69F", "abundance fitness": 0.355}
{"variantAnnotation": "I18P", "abundance fitness": -0.808}
{"variantAnnotation": "S58T", "abundance fitness": -0.241}
{"variantAnnotation": "R29N", "abundance fitness": 0.037}
{"variantAnnotation": "K37M", "abundance fitness": -0.065}
{"variantAnnotation": "S71M", "abundance fitness": 0.105}
{"variantAnnotation": "I14S", "abundance fitness": -0.367}

Could you report abundance fitness for every entry in the following list?
1. I28M
2. I52C
3. S71P
4. G19T
5. T53W

Result:
1. -0.281
2. -1.03
3. 0.024
4. -0.732
5. -0.274

Quick one: give me abundance fitness for each item below, same order please.
1. N26R
2. A34Q
3. I9S
4. I59C

Result:
1: 0.032; 2: -0.641; 3: -0.885; 4: 0.098
